Measurement target: FZD4 (Homo sapiens, UniProt Q9ULV1)
Construct: purchased Promega (in-house HiBiT-GPCR construct library, NanoBRET)
Sequence (Q9ULV1 37-537): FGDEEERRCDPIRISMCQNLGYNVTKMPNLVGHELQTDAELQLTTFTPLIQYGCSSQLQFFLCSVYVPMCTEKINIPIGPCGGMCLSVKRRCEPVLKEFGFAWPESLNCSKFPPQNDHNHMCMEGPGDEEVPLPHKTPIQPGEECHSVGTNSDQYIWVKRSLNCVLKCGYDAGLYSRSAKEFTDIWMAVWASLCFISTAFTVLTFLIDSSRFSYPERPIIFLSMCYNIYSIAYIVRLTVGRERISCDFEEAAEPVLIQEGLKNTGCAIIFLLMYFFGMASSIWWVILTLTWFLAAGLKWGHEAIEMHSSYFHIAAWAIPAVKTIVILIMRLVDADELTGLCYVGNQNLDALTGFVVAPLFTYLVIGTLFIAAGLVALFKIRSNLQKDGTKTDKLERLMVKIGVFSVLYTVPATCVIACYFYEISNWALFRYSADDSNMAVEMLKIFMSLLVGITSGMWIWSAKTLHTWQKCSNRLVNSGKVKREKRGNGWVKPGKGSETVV
Test summary: NanoBRET screen HiBiT-FZD4 in HEK293
Format: binding
Particulars: FZD4; tracer 1μM
Endpoint: NanoBRET Fold Response

molecule=CC(C)N(CC[C@H](c1ccccc1)c1cc(CCNC(=O)c2ccc(CNC(=O)CCc3ccc4n3[B-](F)(F)[N+]3=C(c5ccc[nH]5)C=CC3=C4)cc2)ccc1O)C(C)C observed_value=1.07
molecule=CC(C)N(CC[C@H](c1ccccc1)c1cc(CCNC(=O)CCOCCOCCOCCOCCNC(=O)CCc2ccc3n2[B-](F)(F)[N+]2=C(c4ccc[nH]4)C=CC2=C3)ccc1O)C(C)C observed_value=0.96
molecule="Cc1nc2n(c(=O)c1CCN1CCC(c3noc4cc(F)ccc34)CC1)CCCC2OC(=O)NCCOCCOCCOCCOCCNC(=O)CCc1ccc2n1[B-](F)(F)[N+]1=C(c3ccc[nH]3)C=CC1=C2 (stereo not shown)" observed_value=1.01
molecule=COc1ccccc1N1CCN(CCCCN2C(=O)c3ccc(CNC(=O)CCOCCNC(=O)c4ccc(CNC(=O)CCc5ccc6n5[B-](F)(F)[N+]5=C(c7ccc[nH]7)C=CC5=C6)cc4)cc3C2=O)CC1 observed_value=1.38

###

Measurement target: LGR4 (Homo sapiens)
Construct: purchased Promega (in-house HiBiT-GPCR construct library, NanoBRET)
Sequence (Q9BXB1 25-951): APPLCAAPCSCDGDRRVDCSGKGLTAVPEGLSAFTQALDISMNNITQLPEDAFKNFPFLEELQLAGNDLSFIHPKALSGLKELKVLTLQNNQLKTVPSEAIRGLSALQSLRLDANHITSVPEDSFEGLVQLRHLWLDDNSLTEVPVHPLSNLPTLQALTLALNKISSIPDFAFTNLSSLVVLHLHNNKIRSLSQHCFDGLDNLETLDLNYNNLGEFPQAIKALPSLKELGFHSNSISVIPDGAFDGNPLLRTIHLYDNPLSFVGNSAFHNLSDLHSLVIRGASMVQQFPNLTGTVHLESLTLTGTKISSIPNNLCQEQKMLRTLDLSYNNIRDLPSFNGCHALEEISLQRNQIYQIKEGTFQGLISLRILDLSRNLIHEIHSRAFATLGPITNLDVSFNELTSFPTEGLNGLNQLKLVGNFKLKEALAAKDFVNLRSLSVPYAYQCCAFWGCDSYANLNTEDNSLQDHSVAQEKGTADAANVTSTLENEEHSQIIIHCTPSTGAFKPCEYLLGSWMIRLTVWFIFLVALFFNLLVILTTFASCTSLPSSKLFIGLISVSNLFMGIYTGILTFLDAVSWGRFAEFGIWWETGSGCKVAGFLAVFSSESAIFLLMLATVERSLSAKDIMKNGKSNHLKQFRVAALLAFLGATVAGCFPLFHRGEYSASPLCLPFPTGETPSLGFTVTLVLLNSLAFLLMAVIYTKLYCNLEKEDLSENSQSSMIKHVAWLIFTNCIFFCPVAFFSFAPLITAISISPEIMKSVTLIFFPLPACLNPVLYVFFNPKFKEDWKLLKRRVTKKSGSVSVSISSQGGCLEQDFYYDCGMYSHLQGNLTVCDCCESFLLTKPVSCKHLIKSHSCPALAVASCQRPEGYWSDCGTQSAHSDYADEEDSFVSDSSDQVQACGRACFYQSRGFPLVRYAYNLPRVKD
Test summary: NanoBRET screen HiBiT-LGR4 in HEK293
Format: binding
Particulars: LGR4; tracer 0.1μM
Protocol: Each tracer candidate was screened across the entire library of HiBiT-GPCR constructs using NanoBRET as the detection modality. As depicted in Figure 4A, the specificity of interactions was evaluated through decrease in BRET due to competitive displacement of a bound tracer by excess parental compound. Each tracer was analyzed for binding to each HiBiT-GPCR fusion in the absence and in the presence of competing parental compound. […]
Endpoint: NanoBRET Fold Response

line_notation=O=C(CCc1ccc2n1[B-](F)(F)[N+]1=C(c3ccc[nH]3)C=CC1=C2)NCCOCCOCCNC(=O)OCCOCCN1CCN(C2=Nc3ccccc3Sc3ccccc32)CC1 observed_value=1.00
line_notation=CCCn1c(=O)c2[nH]c(-c3ccc(OCC(=O)NCCNC(=O)CCOCCNC(=O)c4ccc(CNC(=O)CCc5ccc6n5[B-](F)(F)[N+]5=C(c7ccc[nH]7)C=CC5=C6)cc4)cc3)nc2n(CCC)c1=O observed_value=1.02
line_notation=Cc1cc2c(s1)Nc1ccccc1N=C2N1CCN(CCCNC(=O)CCOCCOCCOCCOCCNC(=O)CCc2ccc3n2[B-](F)(F)[N+]2=C(c4ccc[nH]4)C=CC2=C3)CC1 observed_value=0.98

###

Measurement target: PTGER3 (Homo sapiens)
Construct: purchased Promega (in-house HiBiT-GPCR construct library, NanoBRET)
Sequence (P43115 1-390): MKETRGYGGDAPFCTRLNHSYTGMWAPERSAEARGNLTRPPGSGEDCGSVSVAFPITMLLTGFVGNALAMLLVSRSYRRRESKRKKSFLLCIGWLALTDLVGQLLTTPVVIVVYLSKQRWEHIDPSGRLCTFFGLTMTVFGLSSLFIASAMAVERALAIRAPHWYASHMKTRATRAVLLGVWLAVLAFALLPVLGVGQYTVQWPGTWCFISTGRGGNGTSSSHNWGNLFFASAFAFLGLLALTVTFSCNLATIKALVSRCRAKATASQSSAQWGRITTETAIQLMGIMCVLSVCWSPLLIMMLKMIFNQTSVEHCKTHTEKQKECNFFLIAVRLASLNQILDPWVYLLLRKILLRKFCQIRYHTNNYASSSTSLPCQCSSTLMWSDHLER
Test summary: NanoBRET screen HiBiT-PTGER3 in HEK293
Format: binding
Particulars: PTGER3; tracer 1μM
The reader will find reported NanoBRET Fold Response values listed item by item below.
Endpoint: NanoBRET Fold Response

molecule="CC(C)N(CC[C@H](c1ccccc1)c1cc(CCNC(=O)c2ccc(CNC(=O)CCc3ccc4n3[B-](F)(F)[N+]3=C(c5ccc[nH]5)C=CC3=C4)cc2)ccc1O)C(C)C [Tolterodine-BZ-NB590]" observed_value=1.07
molecule="O=C(CCc1ccc2n1[B-](F)(F)[N+]1=C(c3ccc[nH]3)C=CC1=C2)NCCOCCOCCNC(=O)OCCOCCN1CCN(C2=Nc3ccccc3Sc3ccccc32)CC1 [Quetiapine-a-2-NB590]" observed_value=1.04
molecule="CCCn1c(=O)c2[nH]c(-c3ccc(OCC(=O)NCCNC(=O)CCOCCNC(=O)c4ccc(CNC(=O)CCc5ccc6n5[B-](F)(F)[N+]5=C(c7ccc[nH]7)C=CC5=C6)cc4)cc3)nc2n(CCC)c1=O [XAC-3-NB590]" observed_value=1.05

###

Measurement target: HTR1F (Homo sapiens, UniProt P30939)
Construct: purchased Promega (in-house HiBiT-GPCR construct library, NanoBRET)
Sequence (P30939 whole entry): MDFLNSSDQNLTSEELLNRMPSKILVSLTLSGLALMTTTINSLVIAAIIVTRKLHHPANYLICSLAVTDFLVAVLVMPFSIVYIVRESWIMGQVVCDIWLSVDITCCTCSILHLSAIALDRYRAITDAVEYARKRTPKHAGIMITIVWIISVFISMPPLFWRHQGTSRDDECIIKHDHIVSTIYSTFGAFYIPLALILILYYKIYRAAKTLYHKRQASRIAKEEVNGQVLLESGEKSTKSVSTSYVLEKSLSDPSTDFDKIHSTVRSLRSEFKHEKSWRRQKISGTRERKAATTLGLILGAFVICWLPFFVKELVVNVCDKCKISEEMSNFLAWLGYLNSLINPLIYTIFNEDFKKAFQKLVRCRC
Test summary: NanoBRET screen HiBiT-HTR1F in HEK293
Format: binding
Particulars: HTR1F; tracer 0.1μM
Endpoint: NanoBRET Fold Response

line_notation=COc1ccccc1N1CCN(CCCCN2C(=O)c3ccc(CNC(=O)CCOCCNC(=O)c4ccc(CNC(=O)CCc5ccc6n5[B-](F)(F)[N+]5=C(c7ccc[nH]7)C=CC5=C6)cc4)cc3C2=O)CC1 observed_value=2.92
line_notation=O=C(CCOCCOCCOCCOCCNC(=O)CCc1ccc2n1[B-](F)(F)[N+]1=C(c3ccc[nH]3)C=CC1=C2)NCCCN1CCN(C2=Nc3ccccc3Oc3ccc(Cl)cc32)CC1 observed_value=1.01
line_notation=CCCn1c(=O)c2[nH]c(-c3ccc(OCC(=O)NCCNC(=O)CCOCCNC(=O)c4ccc(CNC(=O)CCc5ccc6n5[B-](F)(F)[N+]5=C(c7ccc[nH]7)C=CC5=C6)cc4)cc3)nc2n(CCC)c1=O observed_value=1.07
line_notation=Cc1cc2c(s1)Nc1ccccc1N=C2N1CCN(CCCNC(=O)CCOCCOCCOCCOCCNC(=O)CCc2ccc3n2[B-](F)(F)[N+]2=C(c4ccc[nH]4)C=CC2=C3)CC1 observed_value=1.01

###

The reader will find reported NanoBRET Fold Response values listed item by item below.
Measurement target: CXCR5 (Homo sapiens)
Construct: purchased Promega (in-house HiBiT-GPCR construct library, NanoBRET)
Sequence (P32302 whole entry): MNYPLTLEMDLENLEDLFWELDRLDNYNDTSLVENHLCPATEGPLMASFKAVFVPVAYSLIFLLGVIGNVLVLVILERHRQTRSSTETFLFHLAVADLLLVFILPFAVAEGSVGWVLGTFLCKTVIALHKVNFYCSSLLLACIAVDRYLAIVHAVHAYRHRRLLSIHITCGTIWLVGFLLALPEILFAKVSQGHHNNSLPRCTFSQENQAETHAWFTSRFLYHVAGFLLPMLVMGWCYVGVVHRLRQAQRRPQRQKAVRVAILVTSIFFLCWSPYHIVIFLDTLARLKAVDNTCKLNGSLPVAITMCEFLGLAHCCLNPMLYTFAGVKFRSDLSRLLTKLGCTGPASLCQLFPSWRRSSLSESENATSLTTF
Test summary: NanoBRET screen HiBiT-CXCR5 in HEK293
Type: binding
Particulars: CXCR5; tracer 0.1μM
Endpoint: NanoBRET Fold Response

compound="O=C(CCc1ccc2n1[B-](F)(F)[N+]1=C(c3ccc[nH]3)C=CC1=C2)NCCOCCOCCNC(=O)OCCOCCN1CCN(C2=Nc3ccccc3Sc3ccccc32)CC1 [Quetiapine-a-2-NB590]" observed_value=1.01
compound="Cc1cc2c(s1)Nc1ccccc1N=C2N1CCN(CCCNC(=O)CCOCCOCCOCCOCCNC(=O)CCc2ccc3n2[B-](F)(F)[N+]2=C(c4ccc[nH]4)C=CC2=C3)CC1 [Olanzapine-a-2-NB590]" observed_value=0.98
compound="COc1ccccc1N1CCN(CCCCN2C(=O)c3ccc(CNC(=O)CCOCCOCCOCCOCCNC(=O)CCc4ccc5n4[B-](F)(F)[N+]4=C(c6ccc[nH]6)C=CC4=C5)cc3C2=O)CC1 [NAN-190-2-NB590]" observed_value=1.01

###

Measurement target: RXFP4 (Homo sapiens, UniProt Q8TDU9)
Construct: purchased Promega (in-house HiBiT-GPCR construct library, NanoBRET)
Sequence (Q8TDU9 whole entry): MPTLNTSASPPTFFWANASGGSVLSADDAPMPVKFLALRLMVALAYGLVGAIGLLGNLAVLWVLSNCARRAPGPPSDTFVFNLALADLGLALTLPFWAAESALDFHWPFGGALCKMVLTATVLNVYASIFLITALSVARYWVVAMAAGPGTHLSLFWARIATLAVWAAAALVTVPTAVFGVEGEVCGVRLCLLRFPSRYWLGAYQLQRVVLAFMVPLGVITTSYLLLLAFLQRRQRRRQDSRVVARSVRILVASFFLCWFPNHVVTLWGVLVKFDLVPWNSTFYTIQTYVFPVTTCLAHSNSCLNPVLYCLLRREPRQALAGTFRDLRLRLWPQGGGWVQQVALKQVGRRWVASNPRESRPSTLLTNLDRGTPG
Test summary: NanoBRET screen HiBiT-RXFP4 in HEK293
Type: binding
Particulars: RXFP4; tracer 1μM
Endpoint: NanoBRET Fold Response

line_notation=Cc1cc2c(s1)Nc1ccccc1N=C2N1CCN(CCCNC(=O)CCOCCOCCOCCOCCNC(=O)CCc2ccc3n2[B-](F)(F)[N+]2=C(c4ccc[nH]4)C=CC2=C3)CC1 observed_value=0.91
line_notation=COc1ccccc1N1CCN(CCCCN2C(=O)c3ccc(CNC(=O)CCOCCOCCOCCOCCNC(=O)CCc4ccc5n4[B-](F)(F)[N+]4=C(c6ccc[nH]6)C=CC4=C5)cc3C2=O)CC1 observed_value=0.97
line_notation=CC(C)N(CC[C@H](c1ccccc1)c1cc(CCNC(=O)CCOCCOCCOCCOCCNC(=O)CCc2ccc3n2[B-](F)(F)[N+]2=C(c4ccc[nH]4)C=CC2=C3)ccc1O)C(C)C observed_value=1.06
line_notation=O=C(CCc1ccc2n1[B-](F)(F)[N+]1=C(c3ccc[nH]3)C=CC1=C2)NCCOCCOCCNC(=O)OCCOCCN1CCN(C2=Nc3ccccc3Sc3ccccc32)CC1 observed_value=0.68

###

Measurement target: P2RY14 (Homo sapiens)
Construct: purchased Promega (in-house HiBiT-GPCR construct library, NanoBRET)
Sequence (Q15391 whole entry, one chain of several): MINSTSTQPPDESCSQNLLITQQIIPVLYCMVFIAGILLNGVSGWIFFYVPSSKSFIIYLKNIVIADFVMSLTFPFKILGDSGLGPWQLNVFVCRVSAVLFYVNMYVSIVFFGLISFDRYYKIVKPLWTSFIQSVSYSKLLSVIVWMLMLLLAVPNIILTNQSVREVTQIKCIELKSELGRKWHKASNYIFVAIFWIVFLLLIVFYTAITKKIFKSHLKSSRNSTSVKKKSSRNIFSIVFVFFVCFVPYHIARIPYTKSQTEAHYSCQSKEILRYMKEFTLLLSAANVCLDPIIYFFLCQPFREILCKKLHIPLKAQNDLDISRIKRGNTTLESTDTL
Test summary: NanoBRET screen HiBiT-P2RY14 in HEK293
Type: binding
Particulars: P2RY14; tracer 1μM
Endpoint: NanoBRET Fold Response

molecule="O=C(CCc1ccc2n1[B-](F)(F)[N+]1=C(c3ccc[nH]3)C=CC1=C2)NCc1ccc(C(=O)NCCOCCC(=O)N[C@@H]2CC[C@@]3(O)[C@H]4Cc5ccc(O)c6c5[C@@]3(CCN4CC3CC3)[C@H]2O6)cc1 [Naltrexone-3-NB590]" endpoint="NanoBRET Fold Response" observed_value=1.00
molecule=COc1ccccc1N1CCN(CCCCN2C(=O)c3ccc(CNC(=O)CCOCCNC(=O)c4ccc(CNC(=O)CCc5ccc6n5[B-](F)(F)[N+]5=C(c7ccc[nH]7)C=CC5=C6)cc4)cc3C2=O)CC1 endpoint="NanoBRET Fold Response" observed_value=1.06
molecule=CCCn1c(=O)c2[nH]c(-c3ccc(OCC(=O)NCCNC(=O)CCOCCNC(=O)c4ccc(CNC(=O)CCc5ccc6n5[B-](F)(F)[N+]5=C(c7ccc[nH]7)C=CC5=C6)cc4)cc3)nc2n(CCC)c1=O endpoint="NanoBRET Fold Response" observed_value=1.36
molecule=N#CN=C(NCCCOc1cccc(CN2CCCCC2)c1)NCCNC(=O)CCOCCOCCOCCOCCNC(=O)CCc1ccc2n1[B-](F)(F)[N+]1=C(c3ccc[nH]3)C=CC1=C2 endpoint="NanoBRET Fold Response" observed_value=0.91
